tgt: T1, recombinant human IL-17A (human, UniProt Q16552 24-155)
T1 construct: Bought recombinant protein (Peprotech AF-200-17); also called Peprotech AF-200-17
assay notes: SPR (BIAcore T200), IL-17A coupled to CM5 chip, single-cycle kinetics
koff by entry:

Query: Returns the measured koff for the input binder. Input: Clone 3.9 (VHH, Human single VH domain) VHH: QVQLVQSGAEVKKPGASVKVSCKASGYNFDAYHINWVRQAPGQGLEWMGSIKPNSGATKYAQKFQGRVTITRDTSISTAYMELSRLRSDDTAVYYCASMDRDYYDTSGYFGWFDSWGQGTLVTVSS
Result: 0.00201 s⁻¹

Query: Further, for Clone 3.11 (VHH, Human single VH domain) VHH: QVQLVQSGAEVKKPGASVKVSCKASGYNFDAYHINWVRQAPGQGLEWMGSIKPNSGATKYAQKFQGRVTITRDTSISTAYMELSRLRSDDTAVYYCASLDRDTWYPHSYFGWFDSWGQGTLVTVSS ?
Result: 0.000237 s⁻¹

Query: Would you mind doing Clone 3.6 (VHH, Human single VH domain) VHH: QVQLVQSGAEVKKPGASVKVSCAASGYTFTDYYLHWVRQAPGQGLEWMGWINPNTGTTKYAREFEGRVTMTRDTSISTAYMELSRLRSDDTAVYYCASLDRDWRSPNDYYGWFDSWGQGTLVTVSS as well?
Result: 0.00048 s⁻¹

Query: Please answer likewise for Clone 3.13 (VHH, Human single VH domain) VHH: QVQLVQSGAEVKKPGASVKVSCKASGYNFDAYHINWVRQAPGQGLEWMGSIKPNSGATKYAQKFQGRVTITRDTSISTAYMELSRLRSDDTAVYYCASLDRDTWYPHSYAGWFDSWGQGTLVTVSS
Result: 0.000201 s⁻¹
